Where do these numbers come from? They come from patent US8815918B2.

For each of the compounds below, state its pIC50.
target: PI3K (p110α/p85α) (Homo sapiens (Human)); test: PI3K Activity Assay (ADP Hunter Plus); type: biochemical; conditions: read-out: Biological activity in PI3Kα, semi-quantitative
Sequence (P42336 whole entry): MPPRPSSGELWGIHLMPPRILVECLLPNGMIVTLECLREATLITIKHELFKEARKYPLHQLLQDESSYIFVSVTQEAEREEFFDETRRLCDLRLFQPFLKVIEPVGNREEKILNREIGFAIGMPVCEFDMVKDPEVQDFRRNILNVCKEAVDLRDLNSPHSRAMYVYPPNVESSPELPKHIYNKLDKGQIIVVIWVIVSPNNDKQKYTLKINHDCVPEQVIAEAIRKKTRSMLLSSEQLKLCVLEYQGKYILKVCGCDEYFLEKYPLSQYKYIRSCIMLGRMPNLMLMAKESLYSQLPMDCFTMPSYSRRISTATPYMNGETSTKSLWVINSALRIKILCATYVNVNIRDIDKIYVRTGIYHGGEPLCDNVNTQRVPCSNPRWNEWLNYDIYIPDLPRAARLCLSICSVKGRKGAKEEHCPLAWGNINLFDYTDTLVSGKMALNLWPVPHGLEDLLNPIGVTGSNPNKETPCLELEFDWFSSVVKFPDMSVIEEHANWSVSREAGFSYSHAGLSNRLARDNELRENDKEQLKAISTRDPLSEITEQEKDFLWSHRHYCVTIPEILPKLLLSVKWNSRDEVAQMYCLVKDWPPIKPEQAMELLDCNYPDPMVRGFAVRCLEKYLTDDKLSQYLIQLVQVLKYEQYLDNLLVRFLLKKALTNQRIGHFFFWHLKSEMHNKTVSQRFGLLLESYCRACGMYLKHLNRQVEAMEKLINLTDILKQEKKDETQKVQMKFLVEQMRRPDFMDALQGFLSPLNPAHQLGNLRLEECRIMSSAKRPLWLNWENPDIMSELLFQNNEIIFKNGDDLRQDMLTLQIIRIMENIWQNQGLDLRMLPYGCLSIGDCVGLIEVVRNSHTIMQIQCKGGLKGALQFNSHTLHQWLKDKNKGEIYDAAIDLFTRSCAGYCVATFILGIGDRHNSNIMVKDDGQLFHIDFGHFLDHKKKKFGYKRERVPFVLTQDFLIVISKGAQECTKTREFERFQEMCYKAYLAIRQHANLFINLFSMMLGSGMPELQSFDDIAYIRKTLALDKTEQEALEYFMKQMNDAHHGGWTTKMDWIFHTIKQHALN
Sequence (P27986 whole entry partner): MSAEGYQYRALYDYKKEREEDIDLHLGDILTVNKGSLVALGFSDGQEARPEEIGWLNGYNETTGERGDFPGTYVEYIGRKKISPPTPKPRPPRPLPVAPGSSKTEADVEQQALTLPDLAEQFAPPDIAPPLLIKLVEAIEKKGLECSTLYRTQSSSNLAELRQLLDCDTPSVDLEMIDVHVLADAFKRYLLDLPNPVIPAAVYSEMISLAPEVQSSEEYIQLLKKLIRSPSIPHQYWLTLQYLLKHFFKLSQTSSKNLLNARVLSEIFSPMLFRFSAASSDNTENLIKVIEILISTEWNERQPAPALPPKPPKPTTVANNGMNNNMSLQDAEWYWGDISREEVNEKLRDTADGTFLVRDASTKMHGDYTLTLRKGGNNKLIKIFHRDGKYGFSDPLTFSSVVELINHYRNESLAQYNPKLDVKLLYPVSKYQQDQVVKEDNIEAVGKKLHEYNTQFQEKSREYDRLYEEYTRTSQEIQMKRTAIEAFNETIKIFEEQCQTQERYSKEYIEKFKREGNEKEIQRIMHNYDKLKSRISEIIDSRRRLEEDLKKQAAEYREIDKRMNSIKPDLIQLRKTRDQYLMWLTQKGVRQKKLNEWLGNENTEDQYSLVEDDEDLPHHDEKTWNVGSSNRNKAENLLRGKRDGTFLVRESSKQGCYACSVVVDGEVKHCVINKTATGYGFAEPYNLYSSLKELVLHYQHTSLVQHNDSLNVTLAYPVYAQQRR
pIC50: −log10 of the molar value.

CC(=O)Nc1cccc(-c2nn3c(-c4cnc(N)c(C(F)(F)F)c4)cnc3s2)c1 [Example 46] : > 7.00

Return reported pIC50 values for all items listed beneath this line.
1. COc1ccc(-c2nn3c(-c4cnc(N5CCN(C)CC5)c(C(F)(F)F)c4)cnc3s2)cc1OC [Example 23]
2. COc1ccc(-c2nn3c(-c4ccc(OC)c(OC)c4)cnc3s2)cc1OC [Example 16]
3. Cc1ccc(-c2nn3c(-c4cnc(N)c(C(F)(F)F)c4)cnc3s2)cn1 [Example 43]
4. Nc1ncc(-c2cnc3sc(-c4ccc5[nH]ccc5c4)nn23)cc1C(F)(F)F [Example 40]
5. COc1ccc(-c2nn3c(-c4ccc(C#N)nc4)c(C)nc3s2)cc1OC [Example 2]

Result:
1. 6.00 to 7.00
2. > 7.00
3. > 7.00
4. 6.00 to 7.00
5. 6.00 to 7.00
